Just for reference, a melting point compilation (Tetko et al.; mined from patent text by program, amines drawn as free bases though some values may be those of a salt) is where these values come from.

propertyLabel: melting point

                                   compound         result
0  O=P1(C2CCCC2)c2ccccc2CN1c1ccccc1 (stereo not given)  123 to 125 °C
1    C#C/C(=C\c1cccnc1)c1c[nH]c2ccc(OC)cc12         136 °C
2  CCc1c(Sc2ccccc2)n(CC2CC=CC2)c(=O)[nH]c1=O  112 to 113 °C
3  O=C(O)CCCCC(Cc1ccc(F)cc1)C(=O)O (stereo not given)    80 to 81 °C
4  CC(C)CCC(=O)NC[C@H](O)[C@H](O)[C@H](CC1CCCCC1)NC(=O)OC(C)(C)C  179 to 183 °C
5  CCOC(=O)C(C)(C)NC(=O)c1cccc(C2=NC(C)(C)Cc3c(CC#N)c(OC)c4c(c32)CC(C)(C)O4)c1  126 to 128 °C
6  CC(C)CCc1c(-c2ccc(S(C)(=O)=O)cc2)cnn(-c2ccc(F)cc2)c1=O  151 to 154 °C
7  Cc1nnc(-c2ccc3occ(-c4cnn(Cc5ccccc5)c4)c3n2)o1  194 to 195 °C

Need melting point for each of these compounds.
1. CCOC(=O)C(=Cc1ccco1)c1csc(N)n1
2. NC(=S)c1cccc2c1CCCC2=O

OUT:
1: 109 to 110 °C; 2: 200 to 205 °C
